I'd appreciate it if you could supply Ataxia** in n = 3 values for the items below.
# Tested on: Sprague Dawley rats
# testProtocol: Clinically observable adverse effects of cationic alkyl moieties after subcutaneous bolus in rats (Table 1)
# Assay type: in vivo, rat
# setupConditions: tested at 3.0, 5.0 or 10 μmol/kg, ataxia is bolus dose limiting toxicity
Square brackets hold non-standard residues; d marks the D form. Peptide text beside a SMILES is read from it. * marks the point of attachment. C18 diacid = O=C(O)CCCCCCCCCCCCCCCCC(=O)*; Palmitoyl = CCCCCCCCCCCCCCCC(=O)*; Dab = NCC[C@H](N)C(=O)O; Dap = NC[C@H](N)C(=O)O; AEEA = NCCOCCOCC(=O)O

>  <compound>
CCCCCCCCCCCCCCCC(=O)NCCOCCOCC(=O)NCCOCCOCC(=O)NCCOCCOCC(=O)N[C@@H](CCN)C(=O)N[C@@H](CN)C(=O)O [SEQ ID NO: 17, CH3(CH2)14(C═O)-Aeea-Aeea-Aeea-Dab-Dap] ({Palmitoyl-AEEA-AEEA-AEEA}-[Dab]-[Dap]-OH; C-terminus assumed)

>  <assayedTarget>
Sprague Dawley rats

>  <resultValue>
>10 µmol/kg

$$$$

Field: Ataxia** in n = 3. Fill in for each record below.
1. NCC[C@H](NC(=O)[C@H](CCN)NC(=O)COCCOCCNC(=O)COCCOCCNC(=O)CCCCCCCCCCCCCCCCC(=O)O)C(=O)O [SEQ ID NO: 21, (HOOC)(CH2)16(C═O)-Aeea-Aeea-Dab-Dab] ({C18 diacid-AEEA-AEEA}-[Dab]-[Dab]-OH; C-terminus assumed)
2. NCC[C@H](NC(=O)[C@H](CCN)NC(=O)COCCOCCNC(=O)COCCOCCNC(=O)COCCOCCNC(=O)CCCCCCCCCCCCCCCCC(=O)O)C(=O)O [SEQ ID NO: 18] ({C18 diacid-AEEA-AEEA-AEEA}-[Dab]-[Dab]-OH; C-terminus assumed)

*A*
[">10 µmol/kg", ">10 µmol/kg"]
